targetUnderTest: UniProt:P24063
Sequence (P24063 whole entry): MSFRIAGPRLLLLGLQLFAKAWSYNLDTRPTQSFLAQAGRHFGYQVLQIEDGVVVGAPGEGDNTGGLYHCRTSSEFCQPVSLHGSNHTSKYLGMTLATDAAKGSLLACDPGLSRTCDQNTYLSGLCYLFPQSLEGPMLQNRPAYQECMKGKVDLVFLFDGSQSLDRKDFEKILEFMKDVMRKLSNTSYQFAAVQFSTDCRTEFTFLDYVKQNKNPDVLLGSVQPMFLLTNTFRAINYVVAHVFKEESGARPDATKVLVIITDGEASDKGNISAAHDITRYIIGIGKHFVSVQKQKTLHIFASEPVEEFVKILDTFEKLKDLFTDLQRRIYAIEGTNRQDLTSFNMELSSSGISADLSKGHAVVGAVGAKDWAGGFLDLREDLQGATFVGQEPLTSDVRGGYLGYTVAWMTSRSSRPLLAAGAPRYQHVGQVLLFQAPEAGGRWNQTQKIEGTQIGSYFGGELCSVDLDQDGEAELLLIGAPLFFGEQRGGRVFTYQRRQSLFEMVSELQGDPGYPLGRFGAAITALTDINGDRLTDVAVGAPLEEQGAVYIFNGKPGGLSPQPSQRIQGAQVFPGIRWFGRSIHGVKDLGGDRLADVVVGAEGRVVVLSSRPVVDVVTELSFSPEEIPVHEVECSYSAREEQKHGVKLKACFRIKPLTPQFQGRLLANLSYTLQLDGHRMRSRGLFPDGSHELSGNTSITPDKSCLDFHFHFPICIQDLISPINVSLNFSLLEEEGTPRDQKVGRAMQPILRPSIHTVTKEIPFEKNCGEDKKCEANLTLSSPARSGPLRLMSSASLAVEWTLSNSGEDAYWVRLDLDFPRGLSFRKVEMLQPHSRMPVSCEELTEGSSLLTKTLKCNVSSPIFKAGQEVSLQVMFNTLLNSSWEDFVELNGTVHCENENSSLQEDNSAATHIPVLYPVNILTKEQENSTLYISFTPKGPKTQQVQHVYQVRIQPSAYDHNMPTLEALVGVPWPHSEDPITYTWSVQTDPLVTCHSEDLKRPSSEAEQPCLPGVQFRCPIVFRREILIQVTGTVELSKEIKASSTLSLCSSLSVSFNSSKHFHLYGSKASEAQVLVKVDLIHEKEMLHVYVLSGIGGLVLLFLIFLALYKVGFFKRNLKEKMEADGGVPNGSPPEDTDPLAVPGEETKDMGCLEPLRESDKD
testProtocol: Inhibition of LFA-1/ICAM-1 interaction in mouse CT26 cells assessed as PMA-induced adhesion to ICAM-1 expressing HSE cells at 20 ug/ 5 x 10^5 cells by fluorometric microplate reader analysis
Assay type: cell-based
Activity calls are given as the source filed them. The rule behind the calls is not given here.

compoundStructure	inhibition
CC[C@H](C)[C@H](OCc1ccccc1)[C@H]1[C@H]([N+](=O)[O-])[C@H](c2ccccc2)N[C@]1(C)C(=O)NCCCCC(=O)O	Active
CC[C@H](C)[C@H](OCc1ccccc1)[C@H]1[C@H]([N+](=O)[O-])[C@H](c2ccccc2)N(C(=O)CN)[C@]1(C)C(=O)NCCC(=O)O	Active
CC[C@H](C)[C@H](OCc1ccccc1)[C@H]1[C@H]([N+](=O)[O-])[C@H](c2ccccc2)N[C@]1(C)C(=O)NCCC(=O)O	Active

* * *

targetUnderTest: Integrin alpha-L (Mus musculus)
testProtocol: Inhibition of LFA-1/ICAM-1 interaction in mouse CT26 cells assessed as PMA-induced adhesion to ICAM-1 expressing HSE cells at 20 ug/ 5 x 10^5 cells by fluorometric microplate reader analysis
Type: cell-based
Activity calls are given as the source filed them. The rule behind the calls is not given here.
// allowed return values: active, inactive

Solved cases (3 shown):
compoundStructure	assignedCategory
CC[C@H](C)[C@H](OCc1ccccc1)[C@H]1[C@H]([N+](=O)[O-])[C@H](c2ccccc2)N[C@]1(C)C(=O)NCCCC(=O)O	active
CC[C@H](C)[C@H](OCc1ccccc1)[C@H]1[C@H]([N+](=O)[O-])[C@H](c2ccccc2)N[C@@H]1C(=O)NCCCCC(=O)O	active
CC[C@H](C)[C@H](OCc1ccccc1F)[C@H]1[C@H]([N+](=O)[O-])[C@H](c2ccsc2)N[C@@H]1C(=O)NCCC(=O)O	inactive

Alright, here's another molecule for you.
Task: Which outcome was entered for the molecule `CC[C@H](C)[C@H](OCc1ccccc1)[C@H]1[C@H]([N+](=O)[O-])[C@H](c2ccccc2)N[C@@H]1C(=O)NCC(=O)O` in this test?
Output: inactive

* * *

We begin with a simple list: items and their reported Kd.
targetUnderTest: UniProtKB P20701
Sequence (P20701 whole entry): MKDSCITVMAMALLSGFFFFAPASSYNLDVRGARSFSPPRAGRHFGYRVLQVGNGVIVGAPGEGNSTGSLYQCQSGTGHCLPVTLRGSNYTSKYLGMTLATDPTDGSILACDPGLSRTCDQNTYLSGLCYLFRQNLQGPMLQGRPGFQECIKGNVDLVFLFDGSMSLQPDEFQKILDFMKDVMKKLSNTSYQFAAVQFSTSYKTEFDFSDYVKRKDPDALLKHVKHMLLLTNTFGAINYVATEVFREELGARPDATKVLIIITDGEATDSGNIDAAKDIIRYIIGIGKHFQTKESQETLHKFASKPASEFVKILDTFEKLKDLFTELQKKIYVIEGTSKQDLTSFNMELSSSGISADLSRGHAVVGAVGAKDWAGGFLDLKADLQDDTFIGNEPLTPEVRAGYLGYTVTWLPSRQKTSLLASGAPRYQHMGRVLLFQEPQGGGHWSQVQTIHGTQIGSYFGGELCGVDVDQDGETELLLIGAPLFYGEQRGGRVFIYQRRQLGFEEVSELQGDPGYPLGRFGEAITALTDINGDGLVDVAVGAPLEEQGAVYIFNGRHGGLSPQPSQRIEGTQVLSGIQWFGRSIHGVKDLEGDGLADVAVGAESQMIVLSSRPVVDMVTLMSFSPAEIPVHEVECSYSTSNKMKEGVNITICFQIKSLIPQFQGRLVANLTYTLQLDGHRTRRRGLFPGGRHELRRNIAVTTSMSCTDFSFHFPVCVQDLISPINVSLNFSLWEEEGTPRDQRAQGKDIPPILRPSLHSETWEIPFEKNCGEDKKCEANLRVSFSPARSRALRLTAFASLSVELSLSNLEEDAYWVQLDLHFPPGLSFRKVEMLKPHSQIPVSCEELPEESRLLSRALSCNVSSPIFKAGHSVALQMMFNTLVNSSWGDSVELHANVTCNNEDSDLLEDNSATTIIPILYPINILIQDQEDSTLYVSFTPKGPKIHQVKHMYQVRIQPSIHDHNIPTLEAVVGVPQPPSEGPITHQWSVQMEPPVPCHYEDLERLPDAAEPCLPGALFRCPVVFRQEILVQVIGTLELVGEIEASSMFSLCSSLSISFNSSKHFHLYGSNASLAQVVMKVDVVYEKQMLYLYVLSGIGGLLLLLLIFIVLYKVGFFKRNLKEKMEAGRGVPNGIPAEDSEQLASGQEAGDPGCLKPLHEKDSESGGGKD

compoundStructure	assayResult
CC[C@H](C)[C@H](OCc1ccccc1)[C@H]1[C@H]([N+](=O)[O-])[C@H](c2ccccc2)N[C@]1(C)C(=O)NCCCC(=O)O	7.4 µM

# ---- query compound ----
Form field Kd, entry `CC[C@H](C)[C@H](OCc1ccccc1)[C@H]1[C@H]([N+](=O)[O-])[C@H](c2ccccc2)N[C@]1(C)C(=O)NCCC(=O)O` : 10.1 µM
